B1: library; numbered along this chain (parent)
chain: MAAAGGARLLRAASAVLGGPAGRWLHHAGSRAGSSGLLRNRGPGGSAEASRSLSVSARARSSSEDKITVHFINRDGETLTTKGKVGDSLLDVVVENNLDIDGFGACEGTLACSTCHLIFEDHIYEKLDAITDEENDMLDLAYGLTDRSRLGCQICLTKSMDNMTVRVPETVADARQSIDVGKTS

Variants of: B1
Experiment: scaled log2 fold change in cell abundance, elesclomol vs control (0 = silent mean, 1 = nonsense mean) (scaled log2 ratio); higher = higher viability under elesclomol (loss of FDX1 cuproptosis function);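 further: variant abundance is its share of total variant reads in each endpoint sample, from next-generation sequencing of the integrated ORF PCR-amplified out of genomic DNA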
Settings: with ABC1 FDX1 KO; elesclomol 5 nM; glucose 10 mM; 14 days
The following ranges of scaled log2 fold change define the classes used here: c1: < -0.008; c2: ≥ -0.008 and < 0.2; c3: ≥ 0.2

[
  {
    "variant designation": "A28L",
    "label value": "c2"
  },
  {
    "variant designation": "E133F",
    "label value": "c1"
  },
  {
    "variant designation": "G108T",
    "label value": "c3"
  },
  {
    "variant designation": "S113M",
    "label value": "c3"
  },
  {
    "variant designation": "D179Q",
    "label value": "c3"
  },
  {
    "variant designation": "M160F",
    "label value": "c2"
  },
  {
    "variant designation": "T81Q",
    "label value": "c1"
  },
  {
    "variant designation": "A174W",
    "label value": "c3"
  },
  {
    "variant designation": "R23E",
    "label value": "c2"
  },
  {
    "variant designation": "T164G",
    "label value": "c3"
  },
  {
    "variant designation": "L98P",
    "label value": "c1"
  },
  {
    "variant designation": "I123F",
    "label value": "c1"
  },
  {
    "variant designation": "G22E",
    "label value": "c1"
  },
  {
    "variant designation": "G18W",
    "label value": "c1"
  },
  {
    "variant designation": "N135S",
    "label value": "c2"
  },
  {
    "variant designation": "D132H",
    "label value": "c2"
  },
  {
    "variant designation": "E169I",
    "label value": "c1"
  },
  {
    "variant designation": "V165K",
    "label value": "c3"
  },
  {
    "variant designation": "G6A",
    "label value": "c3"
  },
  {
    "variant designation": "T114M",
    "label value": "c2"
  },
  {
    "variant designation": "S50D",
    "label value": "c1"
  },
  {
    "variant designation": "D75Q",
    "label value": "c3"
  }
]
